- Test system: Mycobacterium tuberculosis variant bovis BCG
- test_summary: microbe, parasite or virus in culture
- Type: functional
The following molecules are shown together with reported log10 MIC90 values.
All values: log10 MIC90 [µM].

Use these answered entries as a reference point.
[[record]]
molecule = "C[C@@H](NCCc1nc(-c2cn(C)c3ccccc23)no1)C1CCCCC1.Cl"
readout_type = "log10 MIC90"
data_value = 0.97

[[record]]
molecule = "CC1=NN(C(=O)c2ccco2)C(O)(c2ccccc2)C1 (stereo not drawn)"
readout_type = "log10 MIC90"
data_value = 0.62

[[record]]
molecule = "Cc1ccc2c(Cl)c(C(=O)NC3=NCCS3)sc2c1"
readout_type = "log10 MIC90"
data_value = 0.58

[[record]]
molecule = "COc1cccc(C(=O)N(Cc2cccnc2)Cc2cc3c(C)cc(C)cc3nc2Cl)c1"
readout_type = "log10 MIC90"
data_value = 0.49

[[record]]
molecule = "Br.CC(C)(C)c1ccccc1OCCCON1C(=N)N=C(N)NC1(C)C"
readout_type = "log10 MIC90"
data_value = 0.26

[[record]]
molecule = "O=C(Nc1nc(-c2ccccn2)cs1)c1ccc(Br)o1"
readout_type = "log10 MIC90"
data_value = 0.54

[[record]]
molecule = "Fc1ccc(-c2nnc3sc(Cc4ccccc4)nn23)cc1"
readout_type = "log10 MIC90"
data_value = 0.93

[[record]]
molecule = "CCCn1nc(C(=O)N2CCN(c3ccccc3F)CC2)c2ccccc2c1=O"
readout_type = "log10 MIC90"
data_value = 0.94

[[record]]
molecule = "CC(c1nc2ccccc2s1)N(C)C(=O)c1ccc2c(c1)CC(c1ccccc1)OC2=O (stereo not drawn)"
readout_type = "log10 MIC90"
data_value = 0.20

[[record]]
molecule = "O=C(Cc1ccc(F)cc1)Nc1nc(-c2ccccn2)cs1"
readout_type = "log10 MIC90"
data_value = 0.95


Would you kindly share the measured log10 MIC90 for O=C(NCCCn1nc(Cl)c(N2CCCNCC2)cc1=O)Nc1ccc(-c2ccccc2)cc1 ?
0.57

Would you kindly share the measured log10 MIC90 for c1ccc(-c2nc(NC3CCCCC3)cc(C3CC3)n2)nc1 ?
0.57

Would you kindly share the measured log10 MIC90 for c1ccc(CCNc2cc(-c3ccccc3)nc3nncn23)cc1 ?
0.91

###

- Test system: Mycobacterium tuberculosis variant bovis BCG
- test_summary: microbe, parasite or virus in culture
- Type: functional
Values of MIC90 strictly less than 7 µM map to T, and values of at least 7 µM map to F.

The following compounds have reported results that may help.
[[record]]
compound = "COc1ccc(CN2CCC3(CCc4ccccc43)CC2)cc1OCc1ccccc1"
class_label = "T"

[[record]]
compound = "O=C(Nc1nc(-c2ccccn2)cs1)C1COc2ccccc2O1 (stereo unspecified)"
class_label = "T"

[[record]]
compound = "COCc1nc(N2CCNCC2)c2c(C)nn(-c3cccc(Cl)c3)c2n1"
class_label = "T"


Determine if Brc1cncc(-c2cc(NCCCn3ccnc3)nc(-c3ccccc3)n2)c1 shows MIC90 strictly lower than 7 µM.
F

Determine if CCOc1ccccc1NC(=O)C(Cc1ccccc1)NC(=O)c1cccs1 (stereo unspecified) shows MIC90 strictly lower than 7 µM.
F

Determine if Nc1nc(N)c2c(Sc3ccc4ccccc4c3)cccc2n1 shows MIC90 strictly lower than 7 µM.
T

Determine if Cc1sc2nc(C3CC3)n(C3CCN(CC(=O)N4CCCC4)CC3)c(=O)c2c1C shows MIC90 strictly lower than 7 µM.
T

###

The following compounds are shown together with reported log10 MIC90 values.
- System: Mycobacterium tuberculosis variant bovis BCG
- test_summary: microbe, parasite or virus in culture
- Assay type: functional
All values: log10 MIC90 [µM].

Use these answered entries as a reference point.
[[record]]
compound = "CCOC(=O)c1c(-c2ccccc2)oc2ccc(O)c(CN3CCCC3)c12"
data_value = 0.59

[[record]]
compound = "CN(C)CCOc1ccc2c(c1)N(C(=O)Cc1ccc(Cl)c(Cl)c1)CC2"
data_value = 1.00

[[record]]
compound = "CCc1c(C)nc(-n2nc(C)cc2NC(=O)c2ccccc2SC)[nH]c1=O"
data_value = 0.56

[[record]]
compound = "O=C(NC12CC3CC(CC(C3)C1)C2)c1cc2ccccc2[nH]1"
data_value = 0.40

[[record]]
compound = "O=C(NNC(=O)c1cccs1)c1ccc(-c2cccc(C(F)(F)F)c2)o1"
data_value = 0.63

[[record]]
compound = "COc1ccc(-c2csc(NC(=O)c3cnc(SC)nc3)n2)cc1"
data_value = 0.04

[[record]]
compound = "COc1ccc(-c2cc(=O)c3cc(OCC(=O)OC(C)C)ccc3o2)cc1"
data_value = 0.79

[[record]]
compound = "CCc1cc(=O)[nH]c(-n2nc(C)cc2NC(=O)c2ccc(C(C)(C)C)cc2)n1"
data_value = -0.10

[[record]]
compound = "N[C@@H]1CCN(c2nc(-c3ccccc3)nc3ccccc23)C1"
data_value = 0.15


With those in mind, consider the next compound.
Would you kindly share the measured log10 MIC90 for CC(C)c1ccc(NC(=O)c2ccc(C(=O)NC3CCCNC3)cc2)cc1 (stereo not given) ?
0.79

###

- Test system: Mycobacterium tuberculosis variant bovis BCG
- test_summary: microbe, parasite or virus in culture
- Assay type: functional
Values of MIC90 strictly less than 4 µM map to t, and values of at least 4 µM map to f.

The following molecules have reported results that may help.
[[record]]
molecule = "CCc1ccc(S(=O)(=O)Nc2cc(CN3CCN(CCC(C)C)CC3)ccc2C)cc1.O=C(O)C(F)(F)F.O=C(O)C(F)(F)F"
class_label = "f"

[[record]]
molecule = "Cc1ccc(-n2cc3c(-c4ccc(Cl)cc4)nnc(C)c3n2)cc1"
class_label = "f"

[[record]]
molecule = "O=C(c1ccc(-c2cccc(OCCN3CCC(c4ccc(F)cc4)CC3)c2)cc1)N1CCCC1"
class_label = "f"

[[record]]
molecule = "CS(=O)(=O)c1ccc(C(=O)Nc2nc(-c3ccccn3)cs2)cc1"
class_label = "t"

[[record]]
molecule = "O=C(Nc1ccc(C(=O)N2CCCCC2c2nc3ccccc3s2)cc1)c1ccco1 (stereo not drawn)"
class_label = "t"


Determine if CN(C)c1cc(C(=O)NCC2CCCCC2)ccc1NC(=O)OCc1ccccc1 shows MIC90 strictly lower than 4 µM.
f

Determine if CCC(C)CC(=O)Nc1nc2c(s1)C(=O)CC(C(=O)N(C)Cc1cccc3ncccc13)C2 (stereo not drawn) shows MIC90 strictly lower than 4 µM.
t

Determine if COc1ccc(N(C(=O)CNc2ccccc2Nc2ccccc2)C2CCCC2)cc1 shows MIC90 strictly lower than 4 µM.
t

Determine if CCc1c(C)sc2nc(C)nc(SCC(=O)NCc3ccccc3)c12 shows MIC90 strictly lower than 4 µM.
f

Determine if CCCCN1CCC(Cc2noc(-c3cc(Cl)c(N)c4c3OCCO4)n2)C1 (stereo not drawn) shows MIC90 strictly lower than 4 µM.
f

###

The following molecules are shown together with reported MIC90 values.
- System: Mycobacterium tuberculosis variant bovis BCG
- test_summary: microbe, parasite or virus in culture
- Type: functional
Give your result in µM as a bare value.

[[record]]
molecule_smiles = "COc1ccc(NC(=O)c2ccc(CN3CCCCC3)o2)c(OC)c1"
readout_unit = "µM"
data_value = 7.2

[[record]]
molecule_smiles = "CCc1c(C)nc(-n2nc(C)cc2NC(=O)c2cccc3ccccc23)[nH]c1=O"
readout_unit = "µM"
data_value = 1.8

[[record]]
molecule_smiles = "Cc1ccc2[nH]c(SCC(=O)NNC(=O)c3cccs3)nc2c1"
readout_unit = "µM"
data_value = 5.9

[[record]]
molecule_smiles = "Cc1cccc(CC(=N)NCCOc2cccc(Cl)c2)c1"
readout_unit = "µM"
data_value = 5.5

[[record]]
molecule_smiles = "COc1ccc2cnnc(SCC(=O)NNC(=O)c3cccs3)c2c1OC"
readout_unit = "µM"
data_value = 3


Would you kindly share the measured MIC90 for O=C(Nc1nnc(-c2ccc(Cl)cc2)o1)c1cc(F)cc(F)c1 ?
4.1

Would you kindly share the measured MIC90 for COc1ccc(CC(=O)Nc2c(-c3cccs3)nc3cc(C)ccn23)cc1 ?
9.2

Would you kindly share the measured MIC90 for CCCOC(=O)COc1ccc2c(=O)c(-c3ccccc3OC)coc2c1 ?
9.8

Would you kindly share the measured MIC90 for Cc1nn(CC(C)C)c(Cl)c1C(=O)Nc1nc(-c2ccccn2)cs1 ?
10

Would you kindly share the measured MIC90 for O=C(C=Cc1ccccc1)Nc1nc(-c2ccccn2)cs1 ?
3.3

Would you kindly share the measured MIC90 for Cc1ccc(OCC(=O)Nc2cc(C)nn2-c2nc(C)cc(O)n2)cc1 ?
3.6

###

- System: Mycobacterium tuberculosis variant bovis BCG
- test_summary: microbe, parasite or virus in culture
- Assay type: functional
Values of MIC90 strictly less than 4 µM map to yes (1), and values of at least 4 µM map to no (0).

The following compounds have reported results that may help.
[[record]]
compound = "Cc1ccc(Cl)c2sc(N(CCN(C)C)C(=O)c3cccc(S(C)(=O)=O)c3)nc12"
class_label = "no (0)"

[[record]]
compound = "c1cc2c(s1)CCOC21CCN(Cc2ccc3c(c2)OCCO3)CC1"
class_label = "yes (1)"

[[record]]
compound = "COc1ccc(Nc2nc(CN3CCN(Cc4ccc(C#N)cc4)CC3)cs2)cc1"
class_label = "no (0)"

[[record]]
compound = "CSc1ccc(C(=O)Nc2nc(-c3ccccn3)cs2)cc1"
class_label = "no (0)"

[[record]]
compound = "COc1cc(C(F)(F)F)nc2ccc(C)c(N)c12"
class_label = "no (0)"


Determine if COc1ccccc1-c1cc(O)c2c(C)nn(-c3ccccc3)c2n1 shows MIC90 strictly lower than 4 µM.
yes (1)

Determine if O=C(Nc1nnc(-c2ccc(Cl)cc2)o1)c1ccc(Cl)cc1 shows MIC90 strictly lower than 4 µM.
yes (1)

Determine if COc1ccc(-c2ccc(Nc3cccc(S(=O)(=O)CCNCC4CCCO4)c3)nc2)cn1 (stereo not given) shows MIC90 strictly lower than 4 µM.
no (0)

Determine if CC1CNC(c2ccc(NC(=O)c3ccc(C(=O)Nc4ccc(C5=NC(C)CN5)cc4)cc3)cc2)=N1 (stereo not given) shows MIC90 strictly lower than 4 µM.
yes (1)

Determine if Br.CC1(C)N=C(N)N=C(N)N1OCCc1ccc2ccccc2c1 shows MIC90 strictly lower than 4 µM.
no (0)
